# Test system: HCT-116 colon
# Method Description: NCI tumour cell line growth inhibition, 48 h
Recorded Metric: TGI

Worked cases, TGI given:
CO/N=C(/C)c1cccc(Nc2cc(-n3nnc4ccccc43)nc3ccccc23)c1: > 100 µM
C[C@H]1[C@H]2[C@H]3CC[C@@H]4[C@@]5(C)CC[C@H](O)C(C)(C)[C@@H]5CC[C@@]4(C)[C@]3(C)C[C@H](O)[C@@]2(C)C[C@H]2O[C@]21C: 36.3 µM
Cn1c(=O)c2c(ncn2CCNC(CO)C(O)c2ccc([N+](=O)[O-])cc2)n(C)c1=O (centres undefined): > 100 µM

Under HCT-116 colon: report TGI of `O=C(O)CCCc1nc2c(n1Cc1ccccc1)C(=O)c1ccccc1C2=O` .
> 100 µM

Source of measurements: PubChem BioAssay (NCI)
